tested on: Saccharomyces cerevisiae; experiment: protein stability index of tFT-peptide fusion (C-terminal peptide) (PSI (0-1 scale)); higher = more stable (slower turnover); details: genetic background: wild type; temperature: 30 C
protein stability index overview
I only need the number, thanks.

INSERT INTO assay_data (sequence_content, measurement_name, value_measured) VALUES
  ('IRACGCSFLWVC', 'protein stability index', 0.106),
  ('DVPLFLPLPVSV', 'protein stability index', 0.297);

Lookup: Saccharomyces cerevisiae / protein stability index / APPSFPPLLLLS : value?
Found: 0.286

###

system: Saccharomyces cerevisiae; assay: protein stability index of tFT-peptide fusion (C-terminal peptide) (PSI (0-1 scale)); higher = more stable (slower turnover); conditions: genetic background: das1 deletion; temperature: 37 C
Please use 1 whenever protein stability index is not below 0.5, and 0 whenever it is.

INSERT INTO assay_data (sequence_content, system_under_test, group_label) VALUES
  ('YLRVRRPGSALV', 'Saccharomyces cerevisiae', 1),
  ('LFLVLFCVVGFV', 'Saccharomyces cerevisiae', 0),
  ('GVYRLCLLLLVY', 'Saccharomyces cerevisiae', 0),
  ('SWMFKLCIQWNV', 'Saccharomyces cerevisiae', 1),
  ('LCLICLFLLKVL', 'Saccharomyces cerevisiae', 1);

Lookup: Textbook exercise: given the entry PLSPTNLSRLLS , state whether its protein stability index is greater than or equal to 0.5.
Found: 1

Lookup: Request: LCIFFWFSSFFL
Found: 1

###

tested on: Saccharomyces cerevisiae; assay: protein stability index of tFT-peptide fusion (C-terminal peptide) (PSI (0-1 scale)); higher = more stable (slower turnover); conditions: genetic background: wild type; temperature: 30 C
protein stability index overview
I only need the number, thanks.

Please review the following examples before continuing.
INSERT INTO assay_data (sequence_content, value_measured) VALUES
  ('ADLAFAGGPYYG', 0.69),
  ('ANELQEIYLGET', 0.688);

Lookup: protein stability index lookup needed for PTGQEFYRGGTR , thanks.
Found: 0.693

Lookup: Request: PPSSRPPVRSPP
Found: 0.69

Lookup: Request: KQKTSRGTGQSL
Found: 0.683

Lookup: Request: LRMHFPPHPSSL
Found: 0.691

Lookup: Request: SPVLSPLSLPPH
Found: 0.698

Lookup: Request: GQGKWGGGGDER
Found: 0.683

Lookup: Request: RFGPPPPPPSTL
Found: 0.71

###

tested on: Saccharomyces cerevisiae; assay: protein stability index of tFT-peptide fusion (C-terminal peptide) (PSI (0-1 scale)); higher = more stable (slower turnover); settings: genetic background: wild type; temperature: 30 C
protein stability index overview
I only need the number, thanks.

Please review the following examples before continuing.
INSERT INTO results (sequence_content, system_under_test, measurement_name, value_measured) VALUES
  ('VGGFVRGRVWCS', 'Saccharomyces cerevisiae', 'protein stability index', 0.696),
  ('STPPPPPTFQLS', 'Saccharomyces cerevisiae', 'protein stability index', 0.691);

Lab note: next sequence to report on.
Lookup: protein stability index lookup needed for TQNRGLSSFRAF , thanks.
Found: 0.691

###

protein stability index overview
system: Saccharomyces cerevisiae; assay: protein stability index of tFT-peptide fusion (C-terminal peptide) (PSI (0-1 scale)); higher = more stable (slower turnover); conditions: genetic background: wild type; temperature: 30 C
I only need the number, thanks.

Please review the following examples before continuing.
INSERT INTO results (sequence_content, value_measured) VALUES
  ('PRERLLSEYCSS [MET8 C-terminal 12 aa]', 0.72),
  ('LSRVGELYLSTD [SEC7 C-terminal 12 aa]', 0.692),
  ('NMGGWVLGGNAR [SND1 C-terminal 12 aa]', 0.693),
  ('NSISPPPRKGFI [YGL006W-A C-terminal 12 aa]', 0.714);

Lookup: protein stability index lookup needed for ETNFWTAAMEYE [THI22 C-terminal 12 aa] , thanks.
Found: 0.701

Lookup: Request: IEALYKLVEEKM [NQM1 C-terminal 12 aa]
Found: 0.68
